# Target Entity: DDR2 (Homo sapiens, UniProt Q16832)
# Construct: purchased Life Technologies
# Assay Text: LanthaScreen Europium Kinase Binding assay, DDR2
# Condition Description: 5 nM DDR2, 10 nM Kinase Tracer 178, 1 h at rt; Ki from IC50 by Cheng-Prusoff; read-out: Ki DDR2
pKi: −log10 of the molar value.
Endpoint Name: pKi

Worked examples, 2 compounds total:
O=C(Nc1cncc(C(F)(F)F)c1)OC1CC2(C1)CN(C(=O)c1cnn3ccsc13)C2	> 8.30
Cc1cc(NC(=O)N(C)C2CC3(C2)CN(C(=O)c2cnn4ccn(C)c24)C3)cc(OC(F)(F)F)c1	7.60 to 8.30

Can you give me pKi for all of these, one by one?
1. O=C(Nc1cccc(C(F)(F)F)c1)NC1CC2(C1)CN(C(=O)c1cnn3c1SCCC3)C2
2. O=C(Nc1cccc(C(F)(F)F)c1)OC1CC2(C1)CN(C(=O)c1cnn3ccsc13)C2
3. O=C(Nc1cc(C(F)(F)F)ccn1)NC1CC2(C1)CN(C(=O)c1cnn3ccsc13)C2
4. O=C(Nc1cccc(C(F)(F)F)c1)NC1CC2(C1)CN(C(=O)c1ncnc3ccsc13)C2

Result:
["7.60 to 8.30", "> 8.30", "7.60 to 8.30", "> 8.30"]

Can you give me pKi for all of these, one by one?
1. O=C(Nc1cncc(C(F)(F)F)c1)NC1CC2(C1)CN(C(=O)c1ccnc3[nH]ncc13)C2
2. Cn1ccn2ncc(C(=O)N3CC4(CC(NC(=O)Nc5cc(OC(F)(F)F)ccc5F)C4)C3)c12
3. COc1ccc(OC(F)(F)F)cc1NC(=O)NC1CC2(C1)CN(C(=O)c1cnc3cccnn13)C2
4. CN(C(=O)Nc1cncc(C(F)(F)F)c1)C1CC2(C1)CN(C(=O)c1cnn3cc(N4CCCC4)ccc13)C2
5. CN1CCN(c2ccc3ncc(C(=O)N4CC5(CC(NC(=O)Nc6cccc(C(F)(F)F)c6)C5)C4)n3c2)CC1

Result:
1: 7.60 to 8.30; 2: 7.60 to 8.30; 3: 7.60 to 8.30; 4: 7.60 to 8.30; 5: 7.60 to 8.30

---

# Target Entity: DDR2 (Homo sapiens)
# Construct: purchased Life Technologies
# Sequence (Q16832 22-855): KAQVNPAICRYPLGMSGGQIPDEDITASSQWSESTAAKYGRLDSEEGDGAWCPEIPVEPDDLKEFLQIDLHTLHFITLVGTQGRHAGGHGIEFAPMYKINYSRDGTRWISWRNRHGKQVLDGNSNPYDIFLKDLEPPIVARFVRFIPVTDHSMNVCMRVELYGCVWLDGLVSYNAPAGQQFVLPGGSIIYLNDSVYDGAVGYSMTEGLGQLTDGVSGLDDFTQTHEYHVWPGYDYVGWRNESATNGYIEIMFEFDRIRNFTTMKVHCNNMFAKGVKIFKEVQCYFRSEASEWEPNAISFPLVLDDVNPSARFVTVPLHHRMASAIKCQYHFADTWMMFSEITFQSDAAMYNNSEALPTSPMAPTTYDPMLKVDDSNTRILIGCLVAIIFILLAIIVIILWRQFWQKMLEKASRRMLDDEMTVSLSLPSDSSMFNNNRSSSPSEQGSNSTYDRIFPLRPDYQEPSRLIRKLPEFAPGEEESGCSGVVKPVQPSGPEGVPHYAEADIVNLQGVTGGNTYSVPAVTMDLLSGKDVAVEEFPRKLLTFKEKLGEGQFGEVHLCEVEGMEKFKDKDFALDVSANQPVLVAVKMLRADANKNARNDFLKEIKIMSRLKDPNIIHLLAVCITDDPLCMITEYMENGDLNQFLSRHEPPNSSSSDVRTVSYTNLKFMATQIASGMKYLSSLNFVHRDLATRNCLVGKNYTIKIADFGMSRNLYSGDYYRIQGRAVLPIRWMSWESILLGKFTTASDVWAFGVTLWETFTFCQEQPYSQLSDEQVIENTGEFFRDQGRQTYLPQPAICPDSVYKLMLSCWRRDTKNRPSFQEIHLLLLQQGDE
# Assay Text: LanthaScreen Europium Kinase Binding assay, DDR2
# Condition Description: 5 nM DDR2, 10 nM Kinase Tracer 178, 1 h at rt; Ki from IC50 by Cheng-Prusoff; read-out: Ki DDR2
Endpoint Name: Ki

Worked examples, 6 compounds total:
CSCCn1ccn2ncc(C(=O)N3CC4(CC(NC(=O)Nc5cccc(C(F)(F)F)c5)C4)C3)c12	5 to 25 nM
CN(C(=O)Nc1cncc(Br)c1)C1CC2(C1)CN(C(=O)c1cnn3ccn(C)c13)C2	5 to 25 nM
COc1ccc(OC(F)(F)F)cc1NC(=O)NC1CC2(C1)CN(C(=O)c1cnn3ccc(N4CCN(C)CC4)cc13)C2	5 to 25 nM
Cn1ccn2ncc(C(=O)N3CC4(CC(NC(=O)Nc5cc(C#N)cc(C(F)(F)F)c5)C4)C3)c12	< 5 nM
Cn1ccn2ncc(C(=O)N3CC4(CC(CC(=O)Nc5cc(OC(F)(F)F)ccn5)C4)C3)c12	5 to 25 nM
CN(C(=O)Nc1cc(C(F)(F)F)ccn1)C1CC2(C1)CN(C(=O)c1ncnc3ccsc13)C2	5 to 25 nM

Now look at this entry.
Ask: Dear colleague, I am looking for the recorded Ki of the following compound: Cn1ccn2ncc(C(=O)N3CC4(CC(NC(=O)Nc5cccc(C(F)(F)F)c5)C4)C3)c12
Result: < 5 nM

---

# Target Entity: DDR1 (Homo sapiens, UniProt Q08345)
# Construct: purchased Carna Biosciences
# Sequence (Q08345 19-913): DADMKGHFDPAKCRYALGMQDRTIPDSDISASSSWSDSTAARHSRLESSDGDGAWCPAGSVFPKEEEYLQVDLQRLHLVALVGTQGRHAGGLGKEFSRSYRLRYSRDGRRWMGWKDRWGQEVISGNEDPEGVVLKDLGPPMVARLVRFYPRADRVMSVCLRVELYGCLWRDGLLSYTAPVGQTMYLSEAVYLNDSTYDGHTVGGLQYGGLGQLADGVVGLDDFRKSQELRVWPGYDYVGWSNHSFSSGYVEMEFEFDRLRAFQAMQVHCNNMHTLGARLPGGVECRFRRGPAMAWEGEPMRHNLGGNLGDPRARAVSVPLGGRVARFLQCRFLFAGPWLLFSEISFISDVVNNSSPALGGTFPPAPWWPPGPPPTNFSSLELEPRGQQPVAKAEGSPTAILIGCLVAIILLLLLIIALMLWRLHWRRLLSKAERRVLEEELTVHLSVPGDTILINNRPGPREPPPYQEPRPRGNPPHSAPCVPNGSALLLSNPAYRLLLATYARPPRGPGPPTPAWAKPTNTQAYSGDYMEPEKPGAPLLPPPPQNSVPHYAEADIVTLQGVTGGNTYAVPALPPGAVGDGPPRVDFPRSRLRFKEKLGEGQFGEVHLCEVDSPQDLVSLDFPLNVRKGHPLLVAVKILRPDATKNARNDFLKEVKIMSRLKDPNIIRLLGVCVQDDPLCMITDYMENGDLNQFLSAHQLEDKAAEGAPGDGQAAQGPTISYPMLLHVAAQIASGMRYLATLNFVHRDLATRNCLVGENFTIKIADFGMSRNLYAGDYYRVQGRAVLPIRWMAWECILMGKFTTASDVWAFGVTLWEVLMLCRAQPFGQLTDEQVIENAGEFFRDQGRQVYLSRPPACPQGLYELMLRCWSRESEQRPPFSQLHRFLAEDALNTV
# Assay Text: LanthaScreen Europium Kinase Binding assay, DDR1
# Condition Description: 5 nM DDR1, 20 nM Kinase Tracer 178, 1 h at rt; Ki from IC50 by Cheng-Prusoff; read-out: Ki DDR1
Task for the reader: assign each of the following compounds its reported Ki.

O=C(Nc1cccc(C(F)(F)F)c1)NC1CC2(C1)CN(Cc1cnc3cnccn13)C2	5 to 25 nM
CN(C(=O)Nc1cncc(C(F)(F)F)c1)C1CC2(C1)CN(C(=O)c1cnn3cc(-c4cncnc4)ccc13)C2	< 5 nM
CN(C(=O)Nc1cc(C(C)(C)C(F)(F)F)on1)C1CC2(C1)CN(C(=O)c1cnn3ccsc13)C2	< 5 nM
CC(C)(C)c1cc(NC(=O)NC2CC3(C2)CN(C(=O)c2cnn4ccncc24)C3)no1	5 to 25 nM
CN(C(=O)Nc1cncc(SC(F)(F)F)c1)C1CC2(C1)CN(C(=O)c1cnn3ccn(C)c13)C2	< 5 nM
O=C(Nc1cc(OC(F)(F)F)ccn1)NC1CC2(C1)CN(C(=O)c1ccnc3[nH]ncc13)C2	< 5 nM
CN(C(=O)Nc1cncc(C(F)(F)F)c1)C1CC2(C1)CN(C(=O)c1cnn3ccccc13)C2	< 5 nM
O=C(Nc1cc(F)cc(C(F)(F)F)c1)NC1CC2(C1)CN(C(=O)c1cnn3ccncc13)C2	< 5 nM

Can you give me Ki for all of these, one by one?
1. O=C(Nc1cc(OC(F)(F)F)ccn1)NC1CC2(C1)CN(C(=O)c1ncnc3ccsc13)C2
2. Cc1nn(C)cc1-c1ccc2c(C(=O)N3CC4(CC(N(C)C(=O)Nc5cncc(C(F)(F)F)c5)C4)C3)cnn2c1
3. COc1ccc(S(F)(F)(F)(F)F)cc1NC(=O)NC1CC2(C1)CN(C(=O)c1cnn3ccn(C)c13)C2
4. N#Cc1cc(NC(=O)NC2CC3(C2)CN(C(=O)c2cnn4ccncc24)C3)cc(C(F)(F)F)c1
5. O=C(Nc1cc(C(F)(F)F)cnn1)NC1CC2(C1)CN(c1cnc3[nH]ncc3c1)C2
6. Cc1ncc(-c2ccc3c(C(=O)N4CC5(CC(N(C)C(=O)Nc6cncc(C(F)(F)F)c6)C5)C4)cnn3c2)s1

Result:
["< 5 nM", "< 5 nM", "< 5 nM", "< 5 nM", "< 5 nM", "< 5 nM"]

Ask: Dear colleague, I am looking for the recorded Ki of the following compound: Cn1ccn2ncc(C(=O)N3CC4(CC(NC(=O)Nc5cc(F)cc(OC(F)(F)F)c5)C4)C3)c12
Result: < 5 nM

---

# Target Entity: DDR1 (Homo sapiens)
# Construct: purchased Carna Biosciences
# Assay Text: LanthaScreen Europium Kinase Binding assay, DDR1
# Condition Description: 5 nM DDR1, 20 nM Kinase Tracer 178, 1 h at rt; Ki from IC50 by Cheng-Prusoff; read-out: Ki DDR1
Endpoint Name: Ki

Worked examples, 10 compounds total:
Cc1ncc(NC(=O)NC2CC3(C2)CN(C(=O)c2cnn4ccn(C)c24)C3)cc1C(F)(F)F [Example 181]	< 5 nM
Cc1nc(NC(=O)N(C)C2CC3(C2)CN(C(=O)c2cnn4ccn(C)c24)C3)cc(C(F)(F)F)n1 [Example 290]	5 to 25 nM
CN(C(=O)Nc1cncc(C(F)(F)C(F)(F)F)c1)C1CC2(C1)CN(C(=O)c1cnn3ccn(C)c13)C2 [Example 266]	< 5 nM
Cn1ccn2ncc(C(=O)N3CC4(CC(NC(=O)Nc5cccc(C(F)(F)C(F)(F)F)c5)C4)C3)c12 [Example 127]	< 5 nM
Cn1ccn2ncc(C(=O)N3CC4(CC(NC(=O)Nc5cc(C6CC6)ccn5)C4)C3)c12 [Example 155]	< 5 nM
Cn1ccn2ncc(C(=O)N3CC4(CC(NC(=O)Nc5cc(OC(F)(F)F)ccc5Cl)C4)C3)c12 [Example 92]	< 5 nM
CN(C(=O)Nc1cc(F)cc(C(F)(F)F)c1)C1CC2(C1)CN(C(=O)c1cnn3ccn(C)c13)C2 [Example 64]	< 5 nM
Cc1cc(-c2ccc3c(C(=O)N4CC5(CC(N(C)C(=O)Nc6cncc(C(F)(F)F)c6)C5)C4)cnn3c2)on1 [Example 237]	< 5 nM
Cc1ccc(-n2nc(C(C)(C)C)cc2NC(=O)NC2CC3(C2)CN(C(=O)c2cnn4ccsc24)C3)cc1 [Example 80]	< 5 nM
Cc1ncc(C(F)(F)F)cc1NC(=O)NC1CC2(C1)CN(C(=O)c1cnn3ccsc13)C2 [Example 165]	< 5 nM

Can you give me Ki for all of these, one by one?
1. Cc1cc(NC(=O)N(C)C2CC3(C2)CN(C(=O)c2ncnc4[nH]ccc24)C3)cc(C(F)(F)F)c1 [Example 268]
2. O=C(Nc1cccc(OC(F)F)c1)NC1CC2(C1)CN(C(=O)c1ncnc3ccsc13)C2 [Example 89]
3. Cc1ncc(C(F)(F)F)cc1NC(=O)NC1CC2(C1)CN(C(=O)c1cnn3ccn(C)c13)C2 [Example 171]
4. Cn1ccn2ncc(C(=O)N3CC4(CC(NC(=O)Nc5cccc(S(=O)(=O)C(F)(F)F)c5)C4)C3)c12 [Example 161]
5. CN(C(=O)Nc1cccc(S(F)(F)(F)(F)F)c1)C1CC2(C1)CN(C(=O)c1cnn3ccn(C)c13)C2 [Example 98]

Result:
1. < 5 nM
2. < 5 nM
3. < 5 nM
4. < 5 nM
5. < 5 nM

Can you give me Ki for all of these, one by one?
1. O=C(Nc1cccc(C(F)(F)F)c1)NC1CC2(C1)CN(C(=O)c1cnc3cccnn13)C2 [Example 7]
2. CN(C(=O)Nc1cccc(C(F)(F)F)c1)C1CC2(C1)CN(C(=O)c1cnn3ccsc13)C2 [Example 133]
3. O=C(Nc1cc(C(F)(F)F)ccc1F)NC1CC2(C1)CN(C(=O)c1cnn3ccncc13)C2 [Example 17]
4. [2H]C([2H])([2H])N(C(=O)Nc1cccc(C(F)(F)F)c1)C1CC2(C1)CN(C(=O)c1cnn3ccn(C)c13)C2 [Example 158]

Result:
5 to 25 nM
< 5 nM
< 5 nM
< 5 nM
